- System: COLO 205 colon
- Protocol: NCI tumour cell line growth inhibition, 48 h
Quick list: TGI per entry.
Just the number please, in µM, no unit attached.

CC(C)(CN1CCCCC1)C(=O)CC(SCCS(=O)(=O)O)c1ccc(Cl)cc1 (stereo not given) : 8.94

Using the record for C=CCN1C(=O)CC(=O)N(NC2=NNC3(C(=O)N2)c2ccccc2-c2ccccc23)C1=S , report its TGI. 45

====

- System: COLO 205 colon
- Protocol: NCI tumour cell line growth inhibition, 48 h
Endpoint label: TGI

Query the reported TGI for COLO 205 colon; item: O=C(Nc1ccc(C(F)(F)F)cc1[N+](=O)[O-])c1cccnc1 > 100 µM

Query the reported TGI for COLO 205 colon; item: OCCCCC#Cc1ccccc1C#Cc1ccc(C(F)(F)F)cc1 33 µM

Query the reported TGI for COLO 205 colon; item: C=CCOC(=O)N1c2ccc(O)cc2[C@@]23O[C@@]24[C@@H]1C#C/C=C\C#C[C@]3(O)C(=O)C[C@@H]4C > 100 µM

Query the reported TGI for COLO 205 colon; item: O=C(O)Cn1ccc(=O)c2cc([N+](=O)[O-])ccc21 > 100 µM
